- Test system: NHEM-hTERT
- EXPERIMENT_DESCRIPTION: cell viability relative to DMSO control (fraction of DMSO control); higher = less cytotoxic, active = 0.5 or less
- MEASUREMENT_CONDITIONS: 1 µM; 120 h
Hi! Could you tag entries with cell viability below 1 as yes, and those at or above as no? Much appreciated.

Below are worked cases with known answers.
C=C[C@H]1[C@@H](O[C@@H]2O[C@H](CO)[C@@H](O)[C@H](O)[C@H]2O)OC=C2C(=O)OCC[C@]21O: yes
Nc1nc(Cl)nc2c1ncn2[C@@H]1O[C@H](CO)[C@@H](O)[C@@H]1F: yes
CN(CCOc1ccc(CC2SC(=O)NC2=O)cc1)c1ccccn1.O=C(O)/C=C\C(=O)O (stereo not given) [Rosiglitazone maleate]: no
Nc1nc([O-])c2c(CCc3ccc(C(=O)N[C@@H](CCC(=O)[O-])C(=O)[O-])cc3)c[nH]c2n1.[Na+].[Na+] [Pemetrexed disodium]: no
O=C(Nc1c(Cl)cncc1Cl)c1ccc(OC(F)F)c(OCC2CC2)c1: yes
Cc1nc2ccc(CN(C)c3ccc(C(=O)N[C@@H](CCC(=O)O)C(=O)O)s3)cc2c(=O)[nH]1: no
CN(C)C/C=C/C(=O)Nc1cc2c(Nc3ccc(F)c(Cl)c3)ncnc2cc1O[C@H]1CCOC1.O=C(O)/C=C\C(=O)O.O=C(O)/C=C\C(=O)O [Afatinib Dimaleate]: no
COc1ccc(/C=C\c2cc(OC)c(OC)c(OC)c2)cc1OP(=O)([O-])[O-].[Na+].[Na+] [Fosbretabulin Disodium]: yes

q: In plain terms, does `COc1cc([C@H]2Oc3cc([C@H]4Oc5cc(O)cc(O)c5C(=O)[C@@H]4O)ccc3O[C@@H]2CO)ccc1O` come in under 1 for cell viability?
a: yes

q: In plain terms, does NC(=O)NO [Hydroxyurea] come in under 1 for cell viability?
a: no

q: In plain terms, does `N.N.O=C([O-])C1(C(=O)[O-])CCC1.[Pt+2]` come in under 1 for cell viability?
a: no

q: In plain terms, does Cl.Cl.O=C1c2c(O)ccc(O)c2C(=O)c2c(NCCNCCO)ccc(NCCNCCO)c21 [Mitoxantrone hydrochloride] come in under 1 for cell viability?
a: yes
